Test system: E coli wild type
experimental.details: MIC by broth microdilution, wild type E coli
Assay type: cell-based
test.conditions: clinical isolate AG001, WT
Could you please report measured MIC AG001 E. coli WT for the items listed next?
Quick note: give the figure in µg/mL, leave out the unit.

Name the recorded MIC AG001 E. coli WT of the molecule listed here: CCCC(O)C1OC(OC2C(N)CC(N)C(O)C2OC2OC(CO)C(OC3OC(CN)C(O)C(O)C3N)C2O)C(N)C(O)C1O (centres unmarked) [DC143]
32

Name the recorded MIC AG001 E. coli WT of the molecule listed here: NCC1OC(OC2C(CNC(N)=O)OC(OC3C(O)C(N)CC(N)C3OC3OC(CO)C(O)C(O)C3N)C2O)C(N)C(O)C1O (centres unmarked)
8

Name the recorded MIC AG001 E. coli WT of the molecule listed here: `CC(C)(O)[C@H]1O[C@H](O[C@H]2[C@H](O[C@@H]3O[C@H](CO)[C@@H](O[C@H]4O[C@@H](CN)[C@@H](O)[C@H](O)[C@H]4N)[C@H]3O)[C@@H](O)[C@H](N)C[C@@H]2N)[C@H](N)[C@@H](O)[C@@H]1O`
8

Name the recorded MIC AG001 E. coli WT of the molecule listed here: CCCC(O)C1OC(OC2C(N)CC(N)C(O)C2OC2OC(CO)C(OC3OC(CN)C(O)C(O)C3N)C2O)C(N)C(O)C1O (centres unmarked) [DC142]
8

Name the recorded MIC AG001 E. coli WT of the molecule listed here: `NC[C@H]1O[C@H](O[C@H]2[C@H](O[C@@H]3O[C@H](CNC=O)[C@@H](O)[C@H]3O)[C@@H](O)[C@H](N)C[C@@H]2N)[C@H](N)[C@@H](O)[C@@H]1O`
32

Name the recorded MIC AG001 E. coli WT of the molecule listed here: NCC1OC(OC2C(CO)OC(OC3C(O)C(N)CC(N)C3OC3OC4C(O)CCCOC4C(O)C3N)C2O)C(N)C(O)C1O (centres unmarked)
4

Name the recorded MIC AG001 E. coli WT of the molecule listed here: NCC1OC(OC2C(CO)OC(OC3C(O)C(N)CC(N)C3OC3OC4C(O)CCOC4C(O)C3N)C2O)C(N)C(O)C1O (centres unmarked)
4

Name the recorded MIC AG001 E. coli WT of the molecule listed here: NCC1OC(OC2C(CNC=O)OC(OC3C(O)C(N)CC(N)C3OC3OC(CO)C(O)C(O)C3N)C2O)C(N)C(O)C1O (centres unmarked)
4

Name the recorded MIC AG001 E. coli WT of the molecule listed here: NCC1OC(OC2C(CNC=O)OC(OC3C(O)C(N)CC(N)C3OC3OC(CO)C(O)CC3N)C2O)C(N)C(O)C1O (centres unmarked)
4

Name the recorded MIC AG001 E. coli WT of the molecule listed here: NCC1OC(OC2C(CO)OC(OC3C(O)C(N)CC(N)C3OC3OC4C(O)COC4C(O)C3N)C2O)C(N)C(O)C1O (centres unmarked)
16

Name the recorded MIC AG001 E. coli WT of the molecule listed here: NC[C@@H]1O[C@H](O[C@H]2[C@@H](O)[C@H](O[C@@H]3[C@@H](O)[C@H](N)C[C@H](N)[C@H]3O[C@H]3O[C@H](CO)[C@@H](O)C[C@H]3N)O[C@@H]2CO)[C@H](N)[C@@H](O)[C@@H]1O [Lividomycin B, lividomycin B, reference compound]
4

Name the recorded MIC AG001 E. coli WT of the molecule listed here: NC[C@@H]1O[C@H](O[C@H]2[C@@H](O)[C@H](O[C@@H]3[C@@H](O)[C@H](N)C[C@H](N)[C@H]3O[C@H]3O[C@H](CN)[C@@H](O)[C@H](O)[C@H]3N)O[C@@H]2CO)[C@H](N)[C@@H](O)[C@@H]1O [neomycin, Neomycin B, reference compound]
1

Name the recorded MIC AG001 E. coli WT of the molecule listed here: CC(N)C1OC(OC2C(N)CC(N)C(O)C2OC2OC(CO)C(OC3OC(CN)C(O)C(O)C3N)C2O)C(N)C(O)C1O (centres unmarked)
2

----------
Test system: A1555G mutant mitochondrial ribosome (human chimeric)
experimental.details: in-vitro translation assay, human chimeric ribosomes, A1555G mutant mitochondrial decoding site
Type: biochemical
test.conditions: human mitochondrial decoding site with A1555G point mutation; read-out: IC50 Mitoch. A1555G
Labelling field: enter true (1) if recorded IC50 is less than 40 µM. Enter false (0) if it equals or exceeds that cut-off.

Find out if reported IC50 for CC(O)C1OC(OC2C(N)CC(N)C(O)C2OC2OC(CO)C(OC3OC(CN)C(O)C(O)C3N)C2O)C(N)C(O)C1O (centres unmarked) is less than 40 µM
true (1)

Find out if reported IC50 for CC1CC(N)C2OC(OC3C(N)CC(N)C(O)C3OC3OC(CO)C(OC4OC(CN)C(O)C(O)C4N)C3O)C(N)C(O)C2O1 (centres unmarked) is less than 40 µM
true (1)

Find out if reported IC50 for NCC1OC(OC2C(CO)OC(OC3C(O)C(N)CC(N)C3OC3OC4C(O)COC4C(O)C3N)C2O)C(N)C(O)C1O (centres unmarked) is less than 40 µM
false (0)

Find out if reported IC50 for `CC(=O)N[C@H]1[C@@H](O[C@H]2[C@H](O[C@@H]3O[C@H](CO)[C@@H](O[C@H]4O[C@@H](CN)[C@@H](O)[C@H](O)[C@H]4N)[C@H]3O)[C@@H](O)[C@H](N)C[C@@H]2N)O[C@H](CN)[C@@H](O)[C@@H]1O` is less than 40 µM
true (1)

Find out if reported IC50 for NCC1OC(OC2C(CO)OC(OC3C(O)C(N)CC(N)C3OC3OC4C(O)CCCOC4C(O)C3N)C2O)C(N)C(O)C1O (centres unmarked) is less than 40 µM
false (0)

Find out if reported IC50 for NC[C@@H]1O[C@H](O[C@H]2[C@@H](O)[C@H](O[C@@H]3[C@@H](O)[C@H](N)C[C@H](N)[C@H]3O[C@H]3O[C@H](CN)[C@@H](O)[C@H](O)[C@H]3N)O[C@@H]2CO)[C@H](N)[C@@H](O)[C@@H]1O [neomycin, Neomycin B, reference compound] is less than 40 µM
true (1)

Find out if reported IC50 for CC(N)C1OC(OC2C(N)CC(N)C(O)C2OC2OC(CO)C(OC3OC(CN)C(O)C(O)C3N)C2O)C(N)C(O)C1O (centres unmarked) is less than 40 µM
true (1)

Find out if reported IC50 for NCC1OC(OC2C(CNC=O)OC(OC3C(O)C(N)CC(N)C3OC3OC(CO)C(O)C(O)C3N)C2O)C(N)C(O)C1O (centres unmarked) is less than 40 µM
true (1)

Find out if reported IC50 for NCC1OC(OC2C(CO)OC(OC3C(O)C(N)CC(N)C3OC3OC4C(O)CCOC4C(O)C3N)C2O)C(N)C(O)C1O (centres unmarked) is less than 40 µM
false (0)

Find out if reported IC50 for CNC1C(OC2C(N)CC(N)C(O)C2OC2OC(CO)C(O)C2O)OC(CN)C(O)C1O (centres unmarked) is less than 40 µM
false (0)

Find out if reported IC50 for `NC[C@H]1O[C@H](O[C@H]2[C@H](O[C@@H]3O[C@H](CO)[C@@H](O)[C@H]3O)[C@@H](O)[C@H](N)C[C@@H]2N)[C@H](N)C[C@@H]1O` is less than 40 µM
false (0)

Find out if reported IC50 for NCC1OC(OC2C(CO)OC(OC3C(O)C(N)CC(N)C3OC3OC(CN)C(O)C(O)C3NC=O)C2O)C(N)C(O)C1O (centres unmarked) is less than 40 µM
true (1)

Find out if reported IC50 for `CC(C)(O)[C@H]1O[C@H](O[C@H]2[C@H](O[C@@H]3O[C@H](CO)[C@@H](O[C@H]4O[C@@H](CN)[C@@H](O)[C@H](O)[C@H]4N)[C@H]3O)[C@@H](O)[C@H](N)C[C@@H]2N)[C@H](N)[C@@H](O)[C@@H]1O` is less than 40 µM
false (0)

Find out if reported IC50 for NC[C@H]1O[C@H](O[C@H]2[C@H](O[C@@H]3O[C@H](CO)[C@@H](O)[C@H]3O)[C@@H](O)[C@H](N)C[C@@H]2N)[C@H](N)[C@@H](O)[C@@H]1O [Ribostamycin, ribostamycin, reference compound] is less than 40 µM
false (0)

Find out if reported IC50 for CCCC(O)C1OC(OC2C(N)CC(N)C(O)C2OC2OC(CO)C(OC3OC(CN)C(O)C(O)C3N)C2O)C(N)C(O)C1O (centres unmarked) [DC143] is less than 40 µM
false (0)

Find out if reported IC50 for NC[C@@H]1O[C@H](O[C@H]2[C@@H](O)[C@H](O[C@@H]3[C@@H](O)[C@H](N)C[C@H](N)[C@H]3O[C@H]3O[C@H](CO)[C@@H](O)[C@H](O)[C@H]3N)O[C@@H]2CO)[C@H](N)[C@@H](O)[C@@H]1O [paromomycin, reference compound] is less than 40 µM
true (1)

Find out if reported IC50 for CCCC(O)C1OC(OC2C(N)CC(N)C(O)C2OC2OC(CO)C(OC3OC(CN)C(O)C(O)C3N)C2O)C(N)C(O)C1O (centres unmarked) [DC142] is less than 40 µM
true (1)

Find out if reported IC50 for `NC[C@@H]1O[C@H](O[C@H]2[C@@H](O)[C@H](O[C@@H]3[C@@H](O)[C@H](N)C[C@H](N)[C@H]3O[C@H]3O[C@H](CN)[C@@H](O)[C@H](O)[C@H]3O)O[C@@H]2CO)[C@H](N)[C@@H](O)[C@@H]1O` is less than 40 µM
true (1)

Find out if reported IC50 for `NC[C@H]1O[C@H](O[C@H]2[C@H](O[C@@H]3O[C@H](CNC=O)[C@@H](O)[C@H]3O)[C@@H](O)[C@H](N)C[C@@H]2N)[C@H](N)[C@@H](O)[C@@H]1O` is less than 40 µM
false (0)

Find out if reported IC50 for CCNC1C(OC2C(N)CC(N)C(O)C2OC2OC(CO)C(OC3OC(CN)C(O)C(O)C3N)C2O)OC(CN)C(O)C1O (centres unmarked) is less than 40 µM
true (1)

Find out if reported IC50 for NCC1OC(OC2C(CNC(N)=O)OC(OC3C(O)C(N)CC(N)C3OC3OC(CO)C(O)C(O)C3N)C2O)C(N)C(O)C1O (centres unmarked) is less than 40 µM
true (1)

Find out if reported IC50 for `NC[C@H]1O[C@H](O[C@H]2[C@H](O[C@@H]3O[C@H](CN)[C@@H](O)[C@H]3O)[C@@H](O)[C@H](N)C[C@@H]2N)[C@H](N)[C@@H](O)[C@@H]1O` is less than 40 µM
true (1)

Hello, the source for this data is patent US11466044B2, in case you need it.
